Below, each entry is listed with its recorded apparent KD of MS2 coat protein.
System: MS2 coat protein
Test: apparent KD of MS2 coat protein; higher = weaker reporter binding
Details: Eterna round: R107; input ligand: arginine 13.2 mM
// note: answer is a bare numeric in nM

Example entries and their recorded answers appear below.
GCCUGGGAUACGGCCGCCACUACAUGAGGAUCACCCAUGUAAUAUUUAUUAGAAGAGAGGGUAUGUAGGACCGGGUAAGGAAGGC [e-trypB-0]
14.3
UAAAACAUGAGGAUCACCCAUGUAAUUGAUACCAGAGUGAUGAUCCUCCCUUGGCAGCAAAUAACGCAUUGAUUACAAUGCGAAA [Mat - Same State Theophlline A - Mod of Eli - D27]
27.9
UAGGUGAUCUUCAACGGAAAACGUUGUGAUACCAGCCAACAAUACGGCCCUUGGCAGCACAUGAGGAUCACCCAUGUGUACACCG [Vetizaatdi]
25.6
UAAUAAUUCCUCAUGUCACGAGUGGCAUAACGAGGACCGGUACGGCCGCCACUCGAACAUGAGGAUCACCCAUGUAGCCACUCGA [M'-T'-T-MS2-T'' - Design 4]
56.7
AAUAAUAGGUGAUCCUGACGAGUGGCAUAACGAGGACCGGUACGGCCGCCACUCGAACAUGAGGAUCACCCAUGUAGCCACUCGA [M'-T'-T-MS2-T'' - Design 5.b]
32

Kindly consider the entry below.
Q: Report apparent KD of MS2 coat protein for ACGUCCGGUUUACUCGUGGGCAUGGUCGAUACCAGUAUUUUAAUCUACCCUUGGCAGCGACAUGAGGAUCACCCAUGUGCGAAGA [XTheo A #21] tested on MS2 coat protein.
Result: 21.5

Each recorded value in this set is attributed to the supplement of paper PMC9170038.
